Target: GST-Rok (full length) (Bacillus subtilis subsp. subtilis str. …, UniProt O34857 1-191)
Sequence: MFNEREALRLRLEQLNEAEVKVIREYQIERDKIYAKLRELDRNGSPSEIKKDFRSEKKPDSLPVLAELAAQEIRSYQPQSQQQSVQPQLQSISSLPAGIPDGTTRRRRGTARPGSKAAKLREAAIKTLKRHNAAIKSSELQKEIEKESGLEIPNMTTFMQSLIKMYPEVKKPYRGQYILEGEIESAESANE
Assay: protein binding microarray; Rok is a gene silencer of Bacillus subtilis; high values mean tight binding
Settings: protein: recombinant; tags: GST (pTH5325, pDEST15-Magic modified); dsDNA, one strand shown
Over roughly 33,000 sequences, “e-score” has its median near -0.037; the highest 2% begin near 0.34. Shown is part of a subset that was picked to be rich in the highest values.
measured-property: binding signal (E-score)
Give just the numeric value; E-score need not be written.

>  <ordered-residues>
ACTGATAT

>  <test-system>
GST-Rok (full length) (Bacillus subtilis subsp. subtilis str. …, UniProt O34857 1-191)

>  <binding signal / E-score>
0.242

$$$$
>  <ordered-residues>
ATATAAAA

>  <test-system>
GST-Rok (full length) (Bacillus subtilis subsp. subtilis str. …, UniProt O34857 1-191)

>  <binding signal / E-score>
0.288

$$$$
>  <ordered-residues>
AAGCCAGC

>  <test-system>
GST-Rok (full length) (Bacillus subtilis subsp. subtilis str. …, UniProt O34857 1-191)

>  <binding signal / E-score>
-0.00201

$$$$
>  <ordered-residues>
ATTCTACG

>  <test-system>
GST-Rok (full length) (Bacillus subtilis subsp. subtilis str. …, UniProt O34857 1-191)

>  <binding signal / E-score>
0.18

$$$$

Provide binding signal value for the following sequence: `CTAGTATC` 0.241

Given the sequence `GGATTGAC` , write its reported binding signal. -0.0238

The reported measurements were obtained from paper PMC6212790.
